Test system: AncSZ;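 further: 11-residue human phosphosite peptides and single-mutation variants displayed on the E. coli surface, counted by deep sequencing, each peptide's frequency after selection divided by its frequency in the unselected input library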;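 further: frequency after pTyr selection over input frequency; kinase dosed for 20-30% of maximal phosphorylation in three min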
Assay: phosphorylation enrichment, bacterial display (enrichment ratio); higher = better substrate or ligand; peptides without Tyr show the background
I would appreciate it if you labelled entries yes when phosphorylation enrichment is 0.7 or higher, otherwise no.

Inquiry: Is phosphorylation enrichment for `WANPEYTGGFK` at or above 0.7?
Reply text: yes

Inquiry: Is phosphorylation enrichment for SSQHRYSTPHT [RAF1_Y232_A237T] at or above 0.7?
Reply text: no

Inquiry: Is phosphorylation enrichment for AVDDKYSRREE [SART1_Y685_I681V] at or above 0.7?
Reply text: yes

Inquiry: Is phosphorylation enrichment for ELCSEYRKSRK [SPINK5_Y440] at or above 0.7?
Reply text: no

Inquiry: Is phosphorylation enrichment for NKKFHYRELPV [ERN2_Y860_H858Y_YF] at or above 0.7?
Reply text: no

Inquiry: Is phosphorylation enrichment for IFLENYNAGTF [CFI_Y421_H418L_YF] at or above 0.7?
Reply text: yes

Inquiry: Is phosphorylation enrichment for CTTIHFNFMCN [TP53_Y234_Y234F_YF] at or above 0.7?
Reply text: yes

Inquiry: Is phosphorylation enrichment for TSIGNYFKPWF [DHCR24_Y299_N294T_YF] at or above 0.7?
Reply text: yes

Inquiry: Is phosphorylation enrichment for QTPVLYAMLFH [MPZ_Y220_D224Y_YF] at or above 0.7?
Reply text: yes

Inquiry: Is phosphorylation enrichment for SGKSEYLLPVA [MYLK_Y611_R607G] at or above 0.7?
Reply text: yes

Inquiry: Is phosphorylation enrichment for SVTCTYSLALN [TP53_Y126_P128L] at or above 0.7?
Reply text: yes

Inquiry: Is phosphorylation enrichment for RQSRNYLGGFA [SYK_Y47] at or above 0.7?
Reply text: yes
